Target: CDK1/cyclin B (Homo sapiens, UniProt P06493)
Sequence (P06493 whole entry, species assumed): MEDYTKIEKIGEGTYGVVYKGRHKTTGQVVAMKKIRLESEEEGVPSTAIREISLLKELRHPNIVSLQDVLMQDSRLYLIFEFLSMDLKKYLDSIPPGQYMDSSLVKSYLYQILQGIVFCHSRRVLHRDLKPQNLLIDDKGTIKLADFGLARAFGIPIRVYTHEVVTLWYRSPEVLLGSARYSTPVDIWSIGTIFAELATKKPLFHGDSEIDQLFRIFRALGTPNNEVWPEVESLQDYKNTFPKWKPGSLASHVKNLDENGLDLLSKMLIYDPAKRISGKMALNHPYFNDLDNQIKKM
Sequence (P14635 whole entry partner, species assumed): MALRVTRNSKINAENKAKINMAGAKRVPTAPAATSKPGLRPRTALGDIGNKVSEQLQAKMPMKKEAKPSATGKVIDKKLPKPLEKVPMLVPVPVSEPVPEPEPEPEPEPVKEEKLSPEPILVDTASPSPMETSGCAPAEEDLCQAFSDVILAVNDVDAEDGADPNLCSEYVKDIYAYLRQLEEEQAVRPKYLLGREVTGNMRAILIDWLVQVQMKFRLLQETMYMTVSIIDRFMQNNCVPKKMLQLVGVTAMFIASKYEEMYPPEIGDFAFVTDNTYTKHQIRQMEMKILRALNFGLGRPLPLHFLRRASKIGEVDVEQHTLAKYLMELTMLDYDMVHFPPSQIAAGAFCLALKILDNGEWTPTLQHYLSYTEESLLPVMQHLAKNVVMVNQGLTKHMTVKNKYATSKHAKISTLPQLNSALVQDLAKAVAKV
Experiment: FRET-based coupled-enzyme protein kinase inhibition assay
Assay type: biochemical
Conditions: compound at 10 µM, 1% DMSO

# Molecular String, System Tested, inhibition at 10 µM [%]
rows = [
    ("CN(C)CCNC(=O)OC[C@H]1O[C@@H](n2cnc3c(N)ncnc32)[C@H](O)[C@@H]1O", "CDK1/cyclin B (Homo sapiens, UniProt P06493)", 3),
    ("Nc1ncnc2c1ncn2[C@@H]1O[C@H](COC(=O)NC[C@H](O)CO)[C@@H](O)[C@H]1O", "CDK1/cyclin B (Homo sapiens, UniProt P06493)", 4),
    ("Nc1ncnc2c1ncn2[C@@H]1O[C@H](COC(=O)NCCN2CCCC2=O)[C@@H](O)[C@H]1O", "CDK1/cyclin B (Homo sapiens, UniProt P06493)", 7),
    ("CC(C)N1CCC(NC(=O)OC[C@H]2O[C@@H](n3cnc4c(N)ncnc43)[C@H](O)[C@@H]2O)CC1", "CDK1/cyclin B (Homo sapiens, UniProt P06493)", 7),
    ("N#CCCN1CCN(C(=O)OC[C@H]2O[C@@H](n3cnc4c(N)ncnc43)[C@H](O)[C@@H]2O)CC1", "CDK1/cyclin B (Homo sapiens, UniProt P06493)", 4),
    ("Nc1ncnc2c1ncn2[C@@H]1O[C@H](COC(=O)N2CCN(C(=O)N3CCOCC3)CC2)[C@@H](O)[C@H]1O", "CDK1/cyclin B (Homo sapiens, UniProt P06493)", 1),
    ("CN1CCN(CCNC(=O)OC[C@H]2O[C@@H](n3cnc4c(N)ncnc43)[C@H](O)[C@@H]2O)CC1", "CDK1/cyclin B (Homo sapiens, UniProt P06493)", 7),
    ("Nc1ncnc2c1ncn2[C@@H]1O[C@H](COC(=O)N2CCS(=O)(=O)CC2)[C@@H](O)[C@H]1O", "CDK1/cyclin B (Homo sapiens, UniProt P06493)", 5),
    ("C[C@@H](NC(=O)OC[C@H]1O[C@@H](n2cnc3c(N)ncnc32)[C@H](O)[C@@H]1O)c1ccc(Cl)cc1", "CDK1/cyclin B (Homo sapiens, UniProt P06493)", 8),
]
